Each recorded value in this set is attributed to paper PMC9804084.

Test system: P-glycoprotein (P-gp)
Assay: In vivo microdialysis pharmacokinetics of LVFX with P-gp inhibitor Tariquidar
Set-up: species or system rat
Details: rat, intravenous, with Tariquidar 8 mg/kg i.p., 30 min before LVFX; blood; TAR group, Tariquidar 8 mg/kg i.p. + LVFX 50 mg/kg; mean ± SD, N=5
measured.property: half-life (min)

[[record]]
molecular_string = "C[C@H]1COc2c(N3CCN(C)CC3)c(F)cc3c(=O)c(C(=O)O)cn1c23"
uom = "min"
data_value = 40


###

Molecular target: Breast cancer resistance protein (BCRP) (Rattus norvegicus, UniProt Q80W57)
Construct: from tissue; host or cells: living rat (blood-brain barrier, choroid plexus)
Sequence (Q80W57 whole entry): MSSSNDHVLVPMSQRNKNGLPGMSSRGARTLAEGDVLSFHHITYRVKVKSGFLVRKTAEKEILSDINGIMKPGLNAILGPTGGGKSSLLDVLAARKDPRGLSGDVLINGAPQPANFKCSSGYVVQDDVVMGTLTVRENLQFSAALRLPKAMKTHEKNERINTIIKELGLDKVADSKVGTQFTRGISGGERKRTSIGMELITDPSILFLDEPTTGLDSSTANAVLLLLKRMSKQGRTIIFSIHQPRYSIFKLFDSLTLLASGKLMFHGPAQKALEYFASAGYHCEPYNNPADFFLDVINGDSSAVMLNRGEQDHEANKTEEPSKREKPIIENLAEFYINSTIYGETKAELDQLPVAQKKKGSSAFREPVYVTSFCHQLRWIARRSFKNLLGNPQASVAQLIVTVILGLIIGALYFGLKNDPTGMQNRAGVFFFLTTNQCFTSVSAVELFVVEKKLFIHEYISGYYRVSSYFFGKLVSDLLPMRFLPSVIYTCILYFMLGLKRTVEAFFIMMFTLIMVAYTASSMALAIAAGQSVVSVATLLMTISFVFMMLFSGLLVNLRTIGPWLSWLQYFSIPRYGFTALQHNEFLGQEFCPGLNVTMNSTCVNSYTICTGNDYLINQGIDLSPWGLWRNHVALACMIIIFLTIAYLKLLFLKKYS
Assay: In vivo microdialysis pharmacokinetics of LVFX with BCRP inhibitor Ko143
Conditions: brain ECF (hippocampal microdialysate, unbound), intravenous, with Ko143 15 mg/kg i.p., 30 min before LVFX, brain ECF, Ko143 group, Ko143 15 mg/kg i.p. + LVFX 50 mg/kg, mean ± SD, N=5
measured.property: Cmax (ng/mL)

[[record]]
molecular_string = "C[C@H]1COc2c(N3CCN(C)CC3)c(F)cc3c(=O)c(C(=O)O)cn1c23"
data_value = 3710

